Biological target: human HAQ isoform of STING (THP-1 STING Lucia ISG cells) (Homo sapiens (Human), UniProt Q86WV6, G230A/H232R/R293Q/R71H)
Sequence (Q86WV6 whole entry R71H/G230A/H232R/R293Q, canonical isoform): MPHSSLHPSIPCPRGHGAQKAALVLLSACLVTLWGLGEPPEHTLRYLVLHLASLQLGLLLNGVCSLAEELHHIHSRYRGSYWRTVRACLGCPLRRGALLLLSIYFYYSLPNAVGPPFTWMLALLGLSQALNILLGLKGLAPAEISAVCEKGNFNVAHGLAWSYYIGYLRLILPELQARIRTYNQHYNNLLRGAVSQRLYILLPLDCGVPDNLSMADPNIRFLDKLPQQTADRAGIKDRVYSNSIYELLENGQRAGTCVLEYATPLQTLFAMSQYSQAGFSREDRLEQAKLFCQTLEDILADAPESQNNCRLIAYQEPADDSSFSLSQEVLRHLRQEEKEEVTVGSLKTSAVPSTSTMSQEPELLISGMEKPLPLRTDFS
Test: THP-1 STING Lucia ISG reporter cell line assay
Type: cell-based
Details: 24 h incubation, QUANTI-Luc luminescence
pEC50: −log10 of the molar value.
Reported Property: pEC50

{"columns": ["Compound", "Censoring Operator", "Measured Number"],
 "data": [
  ["COc1c(C(N)=O)ccc2c1nc(-c1cc(Cl)ccc1-c1nn[nH]n1)n2CCn1c(-c2cc(Cl)ccc2-c2nn[nH]n2)nc2c(OC)c(C(N)=O)ccc21", "=", 5.49],
  ["COc1c(C(N)=O)ccc2c1nc(-c1ccc(Cl)cc1-c1nn[nH]n1)n2CCn1c(-c2c(F)cc(Cl)cc2C(=O)O)nc2c(OC)c(C(N)=O)ccc21", "=", 6.30],
  ["COc1c(C(N)=O)ccc2c1nc(-c1c(F)cc(F)cc1-c1nn[nH]n1)n2CCn1c(-c2c(F)cc(F)cc2-c2nn[nH]n2)nc2c(OC)c(C(N)=O)ccc21", "=", 6.24],
  ["COc1ccc(-c2nc3c(OC)c(C(N)=O)ccc3n2CCn2c(-c3ccc(OC)cc3C(=O)O)nc3c(OC)c(C(N)=O)ccc32)c(C(=O)O)c1", "<", 4.40],
  ["COc1c(C(N)=O)ccc2c1nc(-c1c(I)cccc1C(=O)O)n2CCn1c(-c2c(I)cccc2C(=O)O)nc2c(OC)c(C(N)=O)ccc21 (single isomer, unassigned) [Example 19.1]", "=", 6.53]
]}

All figures here come from patent US12415785B2.
